Target Entity: human Nav1.5 channels stably expressed in HEK 293 cells (Homo sapiens, UniProt Q14524)
Construct: expressed in transfected cells; host or cells: HEK 293
Sequence (Q14524 whole entry): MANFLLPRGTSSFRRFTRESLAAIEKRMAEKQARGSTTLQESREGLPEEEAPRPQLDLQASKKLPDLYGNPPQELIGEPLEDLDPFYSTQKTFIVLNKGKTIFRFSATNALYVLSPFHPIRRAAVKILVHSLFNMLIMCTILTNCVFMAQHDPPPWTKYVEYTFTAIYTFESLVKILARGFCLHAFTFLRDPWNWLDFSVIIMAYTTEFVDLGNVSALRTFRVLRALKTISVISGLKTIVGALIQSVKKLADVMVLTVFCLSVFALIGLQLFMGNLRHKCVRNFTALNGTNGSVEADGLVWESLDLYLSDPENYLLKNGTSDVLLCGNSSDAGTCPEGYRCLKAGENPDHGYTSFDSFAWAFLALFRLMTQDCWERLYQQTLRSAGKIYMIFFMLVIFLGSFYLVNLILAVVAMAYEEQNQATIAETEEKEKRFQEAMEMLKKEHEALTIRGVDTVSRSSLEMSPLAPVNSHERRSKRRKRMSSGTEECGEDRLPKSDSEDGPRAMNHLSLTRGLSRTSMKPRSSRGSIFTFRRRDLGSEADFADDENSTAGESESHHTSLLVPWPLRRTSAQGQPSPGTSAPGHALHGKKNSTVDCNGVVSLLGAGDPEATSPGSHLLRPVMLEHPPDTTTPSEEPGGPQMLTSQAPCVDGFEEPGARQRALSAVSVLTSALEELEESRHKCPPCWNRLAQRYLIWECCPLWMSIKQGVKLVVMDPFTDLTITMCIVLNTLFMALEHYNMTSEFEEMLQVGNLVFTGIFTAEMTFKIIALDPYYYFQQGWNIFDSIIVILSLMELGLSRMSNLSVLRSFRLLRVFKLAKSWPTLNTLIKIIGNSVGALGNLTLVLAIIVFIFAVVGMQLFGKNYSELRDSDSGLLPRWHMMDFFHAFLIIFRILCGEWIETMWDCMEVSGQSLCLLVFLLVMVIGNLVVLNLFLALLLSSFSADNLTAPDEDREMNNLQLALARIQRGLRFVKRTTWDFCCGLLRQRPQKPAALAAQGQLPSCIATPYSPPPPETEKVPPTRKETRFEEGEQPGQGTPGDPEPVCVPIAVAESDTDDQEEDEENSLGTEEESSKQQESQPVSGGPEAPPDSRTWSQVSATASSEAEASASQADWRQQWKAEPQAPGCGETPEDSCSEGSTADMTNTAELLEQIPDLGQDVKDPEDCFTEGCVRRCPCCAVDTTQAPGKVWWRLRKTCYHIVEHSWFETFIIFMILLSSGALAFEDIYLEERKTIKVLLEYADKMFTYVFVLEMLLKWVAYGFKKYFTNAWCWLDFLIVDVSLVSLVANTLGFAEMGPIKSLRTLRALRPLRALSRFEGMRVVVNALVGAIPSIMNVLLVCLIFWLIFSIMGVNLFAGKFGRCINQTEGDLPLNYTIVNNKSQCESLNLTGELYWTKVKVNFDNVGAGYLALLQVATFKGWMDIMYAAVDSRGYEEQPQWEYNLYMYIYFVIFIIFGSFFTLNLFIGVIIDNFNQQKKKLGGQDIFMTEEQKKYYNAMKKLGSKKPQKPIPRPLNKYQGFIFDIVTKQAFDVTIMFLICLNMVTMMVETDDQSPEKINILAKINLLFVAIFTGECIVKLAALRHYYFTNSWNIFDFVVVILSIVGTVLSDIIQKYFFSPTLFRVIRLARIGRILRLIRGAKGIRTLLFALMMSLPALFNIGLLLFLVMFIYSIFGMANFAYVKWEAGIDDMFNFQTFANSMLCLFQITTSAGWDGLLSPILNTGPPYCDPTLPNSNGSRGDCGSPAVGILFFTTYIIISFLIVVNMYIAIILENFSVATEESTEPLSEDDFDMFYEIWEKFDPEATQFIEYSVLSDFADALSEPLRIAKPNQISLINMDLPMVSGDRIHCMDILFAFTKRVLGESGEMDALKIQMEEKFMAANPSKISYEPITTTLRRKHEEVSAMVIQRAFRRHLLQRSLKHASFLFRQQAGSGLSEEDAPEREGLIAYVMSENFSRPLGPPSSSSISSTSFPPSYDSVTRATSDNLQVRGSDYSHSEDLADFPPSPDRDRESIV
Protocol Details: IonWorks Quattro automated patch-clamp, inactivated state block of Nav1.5 (selectivity)
Format: cell-based
Conditions: IonWorks measurement, both channels in HEK 293 cells
Assay Readout: ratio of Nav1.7 potency:Nav 1.5 potency

// worked examples, ratio of Nav1.7 potency:Nav 1.5 potency included
{"Molecule": "CN[C@@H](CCC1(C)CC1)CNc1cc(F)c(S(=O)(=O)Nc2ncc(F)s2)cc1Cl", "Assay Value": "> 2750"}
{"Molecule": "CN[C@H](CNc1cc(F)c(S(=O)(=O)Nc2nccs2)cc1Cl)Cc1ccc(F)c(F)c1", "Assay Value": "> 1100"}
{"Molecule": "CN[C@H](CNc1cc(F)c(S(=O)(=O)Nc2ncc(F)s2)cc1Cl)CC1(CF)CC1 (single isomer, unassigned)", "Assay Value": "> 14"}
{"Molecule": "CN[C@H](CNc1cc(F)c(S(=O)(=O)Nc2nccs2)cc1Cl)Cc1ccc(F)cc1 (single isomer, unassigned)", "Assay Value": "> 541"}

Exam item: Look up ratio of Nav1.7 potency:Nav 1.5 potency with human Nav1.5 channels stably expressed in HEK 293 cells (Homo sapiens, UniProt Q14524) for this molecule: `[2H]C([2H])([2H])N[C@H](CNc1cc(F)c(S(=O)(=O)Nc2ncc(F)s2)cc1Cl)CC(C)(C)C`
Marked response: > 429

Exam item: Field: ratio of Nav1.7 potency:Nav 1.5 potency (human Nav1.5 channels stably expressed in HEK 293 cells (Homo sapiens, UniProt Q14524)). Entry: `CN[C@H](CNc1cc(F)c(S(=O)(=O)Nc2ncc(F)s2)cc1Cl)CC1(C)CC1`
Marked response: > 68

Exam item: What is its ratio of Nav1.7 potency:Nav 1.5 potency for human Nav1.5 channels stably expressed in HEK 293 cells (Homo sapiens, UniProt Q14524)? Entry: `CN[C@H](CNc1cc(F)c(S(=O)(=O)Nc2ncc(F)s2)cc1Cl)C[Si](C)(C)C`
Marked response: > 1929

Exam item: Lab request: please report ratio of Nav1.7 potency:Nav 1.5 potency under test system human Nav1.5 channels stably expressed in HEK 293 cells (Homo sapiens, UniProt Q14524) for `CN[C@@H](CCc1ccccc1)CNc1cc(F)c(S(=O)(=O)Nc2ncc(F)s2)cc1Cl`
Marked response: > 236

Exam item: Record lookup: for human Nav1.5 channels stably expressed in HEK 293 cells (Homo sapiens, UniProt Q14524), what ratio of Nav1.7 potency:Nav 1.5 potency belongs to `CN[C@H](CNc1cc(F)c(S(=O)(=O)Nc2ncc(F)s2)cc1Cl)CC12CC(C1)C2` ?
Marked response: > 611

Exam item: Return ratio of Nav1.7 potency:Nav 1.5 potency measured with human Nav1.5 channels stably expressed in HEK 293 cells (Homo sapiens, UniProt Q14524) given this molecule: `CN[C@@H](CCC1CC1)CNc1cc(F)c(S(=O)(=O)Nc2ncc(F)s2)cc1Cl`
Marked response: > 41

Exam item: Recorded ratio of Nav1.7 potency:Nav 1.5 potency for `CCCC[C@@H](CNc1cc(F)c(S(=O)(=O)Nc2ncc(F)s2)cc1Cl)NC(C)C` with human Nav1.5 channels stably expressed in HEK 293 cells (Homo sapiens, UniProt Q14524), please?
Marked response: > 533

Exam item: Write down the reported ratio of Nav1.7 potency:Nav 1.5 potency of `CN[C@H](CNc1cc(F)c(S(=O)(=O)Nc2ncc(F)s2)cc1C#N)CC(C)(C)C` , test system: human Nav1.5 channels stably expressed in HEK 293 cells (Homo sapiens, UniProt Q14524).
Marked response: > 52

Exam item: Look up ratio of Nav1.7 potency:Nav 1.5 potency with human Nav1.5 channels stably expressed in HEK 293 cells (Homo sapiens, UniProt Q14524) for this molecule: CN[C@H](CNc1cc(F)c(S(=O)(=O)Nc2ncc(F)s2)cc1Cl)CC1CC1(F)F (some centres unmarked)
Marked response: > 23

Exam item: Form entry - test system: human Nav1.5 channels stably expressed in HEK 293 cells (Homo sapiens, UniProt Q14524); read-out: ratio of Nav1.7 potency:Nav 1.5 potency; molecule: `CCN[C@H](CNc1cc(F)c(S(=O)(=O)Nc2ncc(F)s2)cc1Cl)C[Si](C)(C)C`
Marked response: > 11000

* * *

Target Entity: human Nav1.5 channels stably expressed in HEK 293 cells (Homo sapiens, UniProt Q14524)
Construct: expressed in transfected cells; host or cells: HEK 293
Protocol Details: IonWorks Quattro automated patch-clamp, inactivated state block of Nav1.5 (selectivity)
Format: cell-based
Conditions: IonWorks measurement, both channels in HEK 293 cells
Assay Readout: ratio of Nav1.7 potency:Nav 1.5 potency

{"Compound Smiles": "CN[C@H](CNc1cc(F)c(S(=O)(=O)Nc2ncc(F)s2)cc1Cl)Cc1ccccc1", "Target Entity": "human Nav1.5 channels stably expressed in HEK 293 cells (Homo sapiens, UniProt Q14524)", "Assay Readout": "ratio of Nav1.7 potency:Nav 1.5 potency", "Assay Value": "> 174"}

Exam item: Look up ratio of Nav1.7 potency:Nav 1.5 potency: `CN[C@H](CNc1cc(F)c(S(=O)(=O)Nc2nccs2)cc1Cl)Cc1ccc(Cl)cc1`
Marked response: > 1000

Exam item: Which ratio of Nav1.7 potency:Nav 1.5 potency value is on record for `CN[C@H](CNc1cc(F)c(S(=O)(=O)Nc2ncc(F)s2)cc1Cl)CC1CC1` ?
Marked response: > 39

Exam item: ratio of Nav1.7 potency:Nav 1.5 potency lookup needed for `CN[C@H](CNc1cc(F)c(S(=O)(=O)Nc2nccs2)cc1Cl)Cc1cc(F)cc(F)c1` , thanks.
Marked response: > 206

Exam item: // query ratio of Nav1.7 potency:Nav 1.5 potency value for entry `CN[C@H](CNc1cc(F)c(S(=O)(=O)Nc2nccs2)cc1Cl)Cc1cccc(Cl)c1`
Marked response: > 1375

Exam item: Requested field: ratio of Nav1.7 potency:Nav 1.5 potency. Item: `CN(C)[C@H](CNc1cc(F)c(S(=O)(=O)Nc2ncc(F)s2)cc1Cl)C[Si](C)(C)C`
Marked response: > 889

Exam item: Entry `CN[C@H](CNc1cc(F)c(S(=O)(=O)Nc2nccs2)cc1Cl)CC1(C(F)(F)F)CC1` : reported ratio of Nav1.7 potency:Nav 1.5 potency = ?
Marked response: > 275

Exam item: Item `CN[C@@H](CCC1CCC1)CNc1cc(F)c(S(=O)(=O)Nc2ncc(F)s2)cc1Cl` has what recorded ratio of Nav1.7 potency:Nav 1.5 potency?
Marked response: > 110

* * *

Target Entity: human Nav1.7 channels stably expressed in HEK 293 cells (Homo sapiens)
Construct: expressed in transfected cells; host or cells: HEK 293
Sequence (Q15858 whole entry): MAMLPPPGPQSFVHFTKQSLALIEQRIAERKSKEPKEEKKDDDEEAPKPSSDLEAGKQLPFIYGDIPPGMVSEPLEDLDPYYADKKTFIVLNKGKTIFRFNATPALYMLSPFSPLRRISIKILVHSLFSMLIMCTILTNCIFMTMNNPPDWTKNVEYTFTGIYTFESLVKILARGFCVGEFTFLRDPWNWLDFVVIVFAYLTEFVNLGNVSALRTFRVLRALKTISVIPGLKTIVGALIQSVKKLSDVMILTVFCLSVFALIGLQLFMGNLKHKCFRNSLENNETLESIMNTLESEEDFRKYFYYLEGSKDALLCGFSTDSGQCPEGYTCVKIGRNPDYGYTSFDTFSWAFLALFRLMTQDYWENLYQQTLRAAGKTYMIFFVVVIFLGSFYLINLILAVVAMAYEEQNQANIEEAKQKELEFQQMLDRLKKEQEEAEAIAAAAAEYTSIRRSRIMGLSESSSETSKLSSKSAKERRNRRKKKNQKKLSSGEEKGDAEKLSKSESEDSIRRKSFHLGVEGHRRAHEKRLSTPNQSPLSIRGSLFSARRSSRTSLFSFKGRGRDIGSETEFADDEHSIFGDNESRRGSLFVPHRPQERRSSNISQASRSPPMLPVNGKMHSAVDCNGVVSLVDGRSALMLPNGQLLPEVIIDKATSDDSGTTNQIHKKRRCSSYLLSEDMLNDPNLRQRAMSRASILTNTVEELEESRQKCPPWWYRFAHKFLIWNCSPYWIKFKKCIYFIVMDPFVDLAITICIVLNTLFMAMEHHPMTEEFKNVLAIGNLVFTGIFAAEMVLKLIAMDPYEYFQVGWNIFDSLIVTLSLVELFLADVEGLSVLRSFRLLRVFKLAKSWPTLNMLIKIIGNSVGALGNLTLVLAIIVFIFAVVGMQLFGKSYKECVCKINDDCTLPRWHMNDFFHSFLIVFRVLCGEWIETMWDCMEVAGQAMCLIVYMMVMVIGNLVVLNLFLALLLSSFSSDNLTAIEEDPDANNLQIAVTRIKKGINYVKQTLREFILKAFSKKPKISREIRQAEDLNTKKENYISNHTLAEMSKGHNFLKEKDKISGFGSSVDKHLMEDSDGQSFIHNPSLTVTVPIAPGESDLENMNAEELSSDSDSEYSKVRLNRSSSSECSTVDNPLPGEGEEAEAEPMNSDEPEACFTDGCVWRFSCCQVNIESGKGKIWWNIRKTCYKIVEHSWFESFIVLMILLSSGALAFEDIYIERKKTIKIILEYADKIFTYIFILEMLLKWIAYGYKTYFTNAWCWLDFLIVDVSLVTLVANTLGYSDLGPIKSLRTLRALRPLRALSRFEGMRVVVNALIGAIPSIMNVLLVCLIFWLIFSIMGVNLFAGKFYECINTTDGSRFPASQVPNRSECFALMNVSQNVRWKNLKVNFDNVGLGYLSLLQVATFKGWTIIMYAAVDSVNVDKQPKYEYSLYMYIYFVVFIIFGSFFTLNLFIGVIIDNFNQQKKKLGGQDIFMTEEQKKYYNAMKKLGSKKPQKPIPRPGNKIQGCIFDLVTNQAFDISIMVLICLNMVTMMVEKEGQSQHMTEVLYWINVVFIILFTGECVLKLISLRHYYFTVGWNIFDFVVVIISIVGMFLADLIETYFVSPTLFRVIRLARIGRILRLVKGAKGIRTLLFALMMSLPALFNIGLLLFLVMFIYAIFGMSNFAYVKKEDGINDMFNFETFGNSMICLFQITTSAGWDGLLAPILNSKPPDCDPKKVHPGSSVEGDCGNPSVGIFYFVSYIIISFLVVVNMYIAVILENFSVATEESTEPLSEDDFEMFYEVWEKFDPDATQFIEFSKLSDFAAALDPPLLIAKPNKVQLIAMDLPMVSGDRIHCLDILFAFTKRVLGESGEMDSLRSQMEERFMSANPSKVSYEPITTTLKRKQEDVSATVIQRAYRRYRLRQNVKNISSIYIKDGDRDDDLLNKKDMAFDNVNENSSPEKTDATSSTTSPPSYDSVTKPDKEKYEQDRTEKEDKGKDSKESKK
Protocol Details: IonWorks Quattro automated patch-clamp, inactivated state block of Nav1.7
Assay type: cell-based
Conditions: double-pulse protocol, read-out: potency for the Nav 1.7 sodium ion channel (as measured by IonWorks)
Assay Readout: pIC50
Just the number, please; pIC50 means minus log10 of the concentration in mol/L.

Example compounds with recorded pIC50:
{"Compound": "CN[C@H](CNc1cc(F)c(S(=O)(=O)Nc2nccs2)cc1Cl)Cc1cccc(Br)c1", "Target Entity": "human Nav1.7 channels stably expressed in HEK 293 cells (Homo sapiens)", "pIC50": 7.44}
{"Compound": "CN[C@H](CNc1cc(F)c(S(=O)(=O)Nc2nccs2)cc1Cl)CC1CCCCC1", "Target Entity": "human Nav1.7 channels stably expressed in HEK 293 cells (Homo sapiens)", "pIC50": 7.82}
{"Compound": "CN[C@H](CNc1cc(F)c(S(=O)(=O)Nc2ncc(F)s2)cc1Cl)Cc1ccccc1", "Target Entity": "human Nav1.7 channels stably expressed in HEK 293 cells (Homo sapiens)", "pIC50": 6.72}

Exam item: Could you tell me which pIC50 is on file for `CCCC[C@@H](CNc1cc(F)c(S(=O)(=O)Nc2ncc(F)s2)cc1Cl)NC(C)C` ?
Marked response: 7.52

Exam item: I am curious: what pIC50 value has been reported for `CN[C@@H](CCC1CC1)CNc1cc(F)c(S(=O)(=O)Nc2ncc(F)s2)cc1Cl` ?
Marked response: 6.10

Exam item: Requested read-out: pIC50. Entry: `CN[C@H](CNc1cc(F)c(S(=O)(=O)Nc2nccs2)cc1Cl)Cc1ccc(F)c(F)c1`
Marked response: 7.52

Exam item: # get_value(readout='pIC50', item= `CN[C@H](CNc1cc(F)c(S(=O)(=O)Nc2ncc(F)s2)cc1Cl)CC1CC1` )
Marked response: 6.07

Exam item: Would you mind telling me what pIC50 value was observed for `CN[C@H](CNc1cc(F)c(S(=O)(=O)Nc2nccs2)cc1Cl)Cc1cccc(Cl)c1` ?
Marked response: 7.62

Exam item: Need pIC50, item `CN[C@H](CNc1cc(F)c(S(=O)(=O)Nc2nccs2)cc1Cl)Cc1cc(F)cc(F)c1`
Marked response: 6.80

Exam item: For the compound `CN[C@@H](CCc1ccccc1)CNc1cc(F)c(S(=O)(=O)Nc2nccs2)cc1Cl` , what pIC50 is on record?
Marked response: 6.70

Exam item: Which value of pIC50 has been reported for `CN[C@H](CNc1cc(F)c(S(=O)(=O)Nc2ncc(F)s2)cc1Cl)CC1(C(F)(F)F)CC1` in the records?
Marked response: 6.77

Exam item: Which pIC50 value is on record for `CCN[C@H](CNc1cc(F)c(S(=O)(=O)Nc2ncc(F)s2)cc1Cl)C[Si](C)(C)C` ?
Marked response: 8.52

Exam item: I am curious: what pIC50 value has been reported for `CN[C@H](CNc1cc(F)c(S(=O)(=O)Nc2ncc(F)s2)cc1Cl)C[Si](C)(C)C` ?
Marked response: 7.85

Exam item: Which measured pIC50 value corresponds to `CN(C)[C@H](CNc1cc(F)c(S(=O)(=O)Nc2ncc(F)s2)cc1Cl)CC1(C)CC1` ?
Marked response: 6.82

Exam item: Dear colleague, I am looking for the recorded pIC50 of the following compound: `CN[C@@H](CCC1CCC1)CNc1cc(F)c(S(=O)(=O)Nc2ncc(F)s2)cc1Cl`
Marked response: 6.52

Exam item: Sample `CN[C@@H](CCC1(C)CC1)CNc1cc(F)c(S(=O)(=O)Nc2ncc(F)s2)cc1Cl` — what was its pIC50?
Marked response: 7.92

Exam item: Consider the compound `CN[C@H](CNc1cc(F)c(S(=O)(=O)Nc2nccs2)cc1Cl)Cc1ccc(F)cc1Br` and give its measured pIC50.
Marked response: 6.77

Exam item: Any idea what its pIC50 is? The compound is `CN[C@H](CNc1cc(F)c(S(=O)(=O)Nc2nccs2)cc1Cl)Cc1ccccc1F`
Marked response: 6.51

Exam item: // lookup pIC50 for `CN[C@H](CNc1cc(F)c(S(=O)(=O)Nc2ncc(F)s2)cc1Cl)CC12CC(C1)C2`
Marked response: 7.27
